# EXPERIMENT NOTES: solvent given as SMILES
# SETUP CONDITIONS: in CCOCC
Record form. Attribute: absorption maximum. Fill in for each entry.
State the value with its unit after it.

Consider the following items and state reported absorption maximum for each.
1. CC\C=C/C=C/C=C/C=C\CCCCCCCC(=O)O
2. CCCCCCCCC1(CCCCCCCC)c2ccccc2-c2ccc(N(c3ccc(-n4c5ccccc5c5ccccc54)cc3)c3ccc4c(c3)C(CCCCCCCC)(CCCCCCCC)c3ccccc3-4)cc21
3. O=C1C=C(Nc2ccccc2)CCC1
4. Nc1ccc2c(c1)Cc1ccccc1-2
5. CN(C)c1ccc(C2=Cc3ccc4ccccc4[n+]3[B-](F)(F)O2)cc1
6. CCCCCCCCCCCCCCCCCCN1C(=O)c2cccc3c(OCCN(C)C)ccc(c23)C1=O
7. Cn1cccc1-c1cc(C#N)ccc1C#N
8. COc1ccc(/C=C/C2=[O+][B-](F)(F)OC(/C=C/c3ccc(OC)c4ccccc34)=C2c2ccccc2)c2ccccc12

Response:
318.8 nm
345 nm
296 nm
318 nm
467 nm
359 nm
364 nm
540 nm

Please supply absorption maximum for each of the following items, keeping them in order.
1. CC(C)[Si]1(C(C)C)c2cc(C=C(C#N)C#N)ccc2-c2ccc(N(c3ccccc3)c3ccccc3)cc21
2. O=C1OC(c2ccccc2)=N/C1=C\c1ccc(N(c2ccc(/C=C3\N=C(c4ccccc4)OC3=O)cc2)c2ccc(/C=C3/N=C(c4ccccc4)OC3=O)cc2)cc1
3. CCC1=C(C)C2=C(c3c(C)cc(C)nc3-c3cccs3)c3c(C)c(CC)c(C)n3[B-](F)(F)[N+]2=C1C
4. COc1ccc(/C=C/C2=CC(/C=C/c3ccc(OC)c4ccccc34)=[O+][B-](F)(F)O2)c2ccccc12
5. COC(=O)c1ccc(C#Cc2ccc(N(C)C)cc2)cc1
6. CC1=CC(C)=[N+]2C1=C(c1ccc(N(C)C)cc1)c1c(C)cc(/C=C/c3ccc(N(C)C)cc3)n1[B-]2(F)F
7. COc1ccc(C2=C3C=c4c(oc5cc6c(cc45)[C@H]4CC[C@]5(C)C(=O)CC[C@H]5[C@@H]4CC6)=[N+]3[B-](F)(F)n3c2cc2c4cc5c(cc4oc23)CC[C@@H]2[C@@H]5CC[C@]3(C)C(=O)CC[C@@H]23)cc1
8. c1ccc(N(c2ccccc2)c2ccc(-c3cccc4nc5ccccc5cc34)cc2)cc1

Response:
467 nm
496.5 nm
530 nm
516 nm
354.5 nm
591 nm
596.5 nm
386 nm

Batch of 4 compounds: report absorption maximum for each.
1. CC(=O)c1nc(-c2ccc(N(c3ccccc3)c3ccccc3)cc2)oc1C
2. CC(C)[Si]1(C(C)C)c2cc(N(C)C)ccc2-c2ccc(C(F)(F)F)cc21
3. c1csc(-c2cnc(-c3cccs3)c3nonc23)c1
4. CN(C)c1ccc(/C=C/c2nc3c4ccccc4c4ccccc4c3[nH]2)cc1

Response:
326 nm
334 nm
462 nm
386 nm

State the recorded absorption maximum for every item in the following list.
1. CN(C)c1ccc(/C=C/C=C/c2ccc(C#N)cc2)cc1
2. CCC1(CC)c2cc(N(C)C)ccc2-c2ccc(C(F)(F)F)cc21
3. COc1cc(OC)c2ccc(=O)oc2c1
4. O=C1/C(=C/C=C/c2cc3c4c(c2)CCCN4CCC3)CC/C1=C\C=C\c1cc2c3c(c1)CCCN3CCC2

Response:
1: 400 nm; 2: 342 nm; 3: 318 nm; 4: 494 nm

Quick one: give me absorption maximum for each item below, same order please.
1. Cc1ccc(C)n1-c1ccc(C#N)cc1
2. c1ccc2c(-n3cnc4ccccc43)cccc2c1

Response:
1. 275 nm
2. 284 nm

Kindly give each listed record's absorption maximum.
1. CC(C)[Si]1(C(C)C)c2cc(C#N)ccc2-c2ccc(N(c3ccccc3)c3ccccc3)cc21
2. CN(C)c1ccc(C#Cc2ccc(C=O)cc2)cc1
3. c1ccc2cc(-n3cnc4ccccc43)ccc2c1

Response:
["383 nm", "372.49 nm", "276 nm"]
